# Experimental details: cytotoxicity in HPDE-C7 cells, cell-based, fluorescence, HTS (AID 430);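 also: cells exposed to compound for 48 hours before viability readout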
# Cond: HPDE-C7 pancreatic duct cells viability, at 10 µM
Hit rate of the full screen: of about 63,000 compounds, about 1,100 (1.7%) were called active. Rule as the data show it: active = cytotoxicity above about 50%; inactive = the rest. What follows is part of a selection rich in actives, with near analogues and random picks from the rest. Entries with a potency or affinity are not part of this list.
Respond using exactly one of the listed classes: active, inactive

Recorded test call requested for COc1ccc(C(=O)NC2CCN(C(=O)NC3CCCCC3)CC2)cc1 inactive

Recorded test call requested for COC(=O)C1=C(C)NC(=O)CC1c1cccc(Cl)c1Cl (stereo not drawn) inactive

Recorded test call requested for Cc1oc(C(=O)O)cc1CSc1nnc(-c2ccccc2)n1C inactive

Recorded test call requested for CC1CCCCN1C(=O)CSc1nc2cc3c(cc2c(=O)n1Cc1ccc2c(c1)OCO2)OCO3 (stereo not drawn) inactive

Recorded test call requested for COCCCNC(=O)CN(Cc1ccc(Cl)cc1)S(C)(=O)=O inactive

Recorded test call requested for CCCOC(=O)Nc1nc2ccccc2o1 inactive

Recorded test call requested for COC(=O)c1ccc2c(=O)n(Cc3ccc4c(c3)OCO4)c(SCC(=O)N3CCCC3)nc2c1 active

Recorded test call requested for CCOC(=O)C1C(c2cccc(Cl)c2Cl)NC(=O)NC1(O)C(F)(F)F (stereo not drawn) inactive

Recorded test call requested for O=C(O)CN1CCN(Cc2ccc(F)cc2Cl)C1=O inactive
